# tested system: αSYN fibrils (Homo sapiens, UniProt P37840)
# test method notes: [3H]PiB competition binding assay on αSYN fibrils
readout name: Ki (nM)

chemical_structure=Cc1cccc2sc(/C=C/c3ccc(N4CCCCC4)cc3)[n+](C)c12 readout_name=Ki value_unit=nM reported_value=60

###

Quick reference: pKi of the listed items.
# tested system: αSYN fibrils (Homo sapiens, UniProt P37840)
# test method notes: [3H]PiB competition binding assay on αSYN fibrils
# details: read-out: Ki
# Experimental: Concentrations of αSYN and Aβ1-42 fibrils were as described above. Plates were incubated on a shaker (MaxQ 6000, Thermo Fisher Scientific Inc., Marietta, OH, USA) at 50 rpm for 2 hours at 37°C, covered by removable sealing tapes (PerkinElmer, Waltham, MA, USA). […] Data points were fitted using non-linear regression analysis in GraphPad Prism (GraphPad Software, Inc., Version 8.4.0, La Jolla, USA).
pKi: −log10 of the molar value.
readout name: pKi

molecule="C(=Cc1nc2ccccc2s1)c1ccc(N2CCSCC2)cc1 [16a]" tested_system="αSYN fibrils (Homo sapiens, UniProt P37840)" reported_value=6.86
molecule=Fc1cccc2sc(C=Cc3ccc(N4CCCCC4)cc3)nc12 tested_system="αSYN fibrils (Homo sapiens, UniProt P37840)" reported_value=6.83
molecule=COc1ccc2nc(C=Cc3ccc(N4CCCCC4)cc3)sc2c1 tested_system="αSYN fibrils (Homo sapiens, UniProt P37840)" reported_value=6.97
molecule=Cc1ccc2sc(C=Cc3ccc(N4CCCCC4)cc3)[n+](C)c2c1 tested_system="αSYN fibrils (Homo sapiens, UniProt P37840)" reported_value=7.14
molecule=Cc1ccc2sc(C=Cc3ccc(N4CCCCC4)cc3)nc2c1 tested_system="αSYN fibrils (Homo sapiens, UniProt P37840)" reported_value=6.79
molecule="c1ccc2sc(-c3ccc(N4CCCCC4)cc3)nc2c1 [13a]" tested_system="αSYN fibrils (Homo sapiens, UniProt P37840)" reported_value=7.13
molecule=Cc1cccc2sc(C=Cc3ccc(N4CCCCC4)cc3)nc12 tested_system="αSYN fibrils (Homo sapiens, UniProt P37840)" reported_value=6.87
molecule=COc1ccc2sc(C=Cc3ccc(N4CCCCC4)cc3)nc2c1 tested_system="αSYN fibrils (Homo sapiens, UniProt P37840)" reported_value=6.80
molecule="Cc1cccc2c1sc(C=Cc1ccc(N3CCCCC3)cc1)[n+]2C [10b]" tested_system="αSYN fibrils (Homo sapiens, UniProt P37840)" reported_value=6.83
molecule=C(=Cc1nc2ccccc2s1)c1ccc(N2CCCCC2)cc1 tested_system="αSYN fibrils (Homo sapiens, UniProt P37840)" reported_value=6.99
molecule=COc1ccc2sc(C=Cc3ccc(N4CCCCC4)cc3)[n+](C)c2c1 tested_system="αSYN fibrils (Homo sapiens, UniProt P37840)" reported_value=7.02
molecule=Fc1ccc2sc(C=Cc3ccc(N4CCCCC4)cc3)nc2c1 tested_system="αSYN fibrils (Homo sapiens, UniProt P37840)" reported_value=6.83
molecule="C[n+]1c(C=Cc2ccc(N3CCCC3)cc2)sc2ccccc21 [17b]" tested_system="αSYN fibrils (Homo sapiens, UniProt P37840)" reported_value=6.99
